tested on: breast cancer (MCF7) cells; test: MTT cytotoxicity assay, MCF7; type: cell-based, human; settings: read-out: IC50 MCF-7; MTT, 96 h treatment
observable: IC50 (µM)
Give bare numbers, in µM.

Prompt: Request the reported IC50 associated with N.N.[Cl][Pt][Cl] [Cisplatin, reference compound]
Completion: 26.9

----------
system: Escherichia coli (ATCC 25922); experiment: Micro-broth dilution assay; format: cell-based; details: ATCC25922, read-out: MIC EC
observable: MIC

Example cases with answers are listed next.
[
  {
    "query-smiles": "COC(=O)c1cn(C2CC2)c2cc(N3CCN(C(=O)c4c(C)nnn4-c4ccc(Cl)cc4)CC3)c(F)cc2c1=O",
    "MIC": "> 500 µg/mL"
  },
  {
    "query-smiles": "COC(=O)c1cn(C2CC2)c2cc(N3CCN(C(=O)c4c(C)nnn4-c4ccc(F)cc4)CC3)c(F)cc2c1=O",
    "MIC": "> 500 µg/mL"
  },
  {
    "query-smiles": "COC(=O)c1cn(C2CC2)c2cc(N3CCN(C(=O)c4c(C)nnn4-c4ccc(C(F)(F)F)cc4)CC3)c(F)cc2c1=O",
    "MIC": "> 500 µg/mL"
  },
  {
    "query-smiles": "COC(=O)c1cn(C2CC2)c2cc(N3CCN(C(=O)c4c(C)nnn4Cc4cccc(F)c4)CC3)c(F)cc2c1=O",
    "MIC": "500 µg/mL"
  },
  {
    "query-smiles": "COC(=O)c1cn(C2CC2)c2cc(N3CCN(C(=O)c4c(C)nnn4Cc4ccc(F)cc4)CC3)c(F)cc2c1=O",
    "MIC": "> 500 µg/mL"
  }
]

Prompt: Request the reported MIC associated with COC(=O)c1cn(C2CC2)c2cc(N3CCN(C(=O)c4c(C)nnn4-c4ccc([N+](=O)[O-])cc4)CC3)c(F)cc2c1=O
Completion: > 500 µg/mL

----------
system: non-small cell lung cancer (A549) cells; experiment: MTT cytotoxicity assay, A549; format: cell-based, human; details: read-out: IC50 A549; MTT, 96 h treatment
observable: pIC50
Give bare numbers, as −log10 of the molar value.

Prompt: Request the reported pIC50 associated with N.N.[Cl][Pt][Cl] [Cisplatin, reference compound]
Completion: 4.52

----------
test: ABTS radical scavenging assay; details: 50 μg/ml
Mark not fulfilled for % inhibition ±SD, ABTS values under 60%, and fulfilled for everything at or above.

Please review the entries below; each comes with its answer.
[
  {
    "query-smiles": "COC(=O)c1cn(C2CC2)c2cc(N3CCN(C(=O)c4c(C)nnn4Cc4ccc(F)cc4)CC3)c(F)cc2c1=O",
    "label-class": "fulfilled"
  },
  {
    "query-smiles": "COC(=O)c1cn(C2CC2)c2cc(N3CCN(C(=O)c4c(C)nnn4-c4ccc(F)cc4)CC3)c(F)cc2c1=O",
    "label-class": "not fulfilled"
  },
  {
    "query-smiles": "COC(=O)c1cn(C2CC2)c2cc(N3CCN(C(=O)c4c(C)nnn4-c4ccc([N+](=O)[O-])cc4)CC3)c(F)cc2c1=O",
    "label-class": "fulfilled"
  }
]

Let's switch to this compound now.
Prompt: Would you say COC(=O)c1cn(C2CC2)c2cc(N3CCN(C(=O)c4c(C)nnn4Cc4cccc(F)c4)CC3)c(F)cc2c1=O shows % inhibition ±SD, ABTS at minimum 60%?
Completion: not fulfilled
